system: Felis catus; assay: Inhibition of electrical stimulation-induced monosynaptic spinal reflex response in unanesthetized decerebrated cat spinal cord segment assessed as duration at 5 mg/kg, iv; type: functional
Consider the following compounds; for each one, report its Time.

Value of Time reported for the compound CC(=O)O[C@H]1CC2=C(CC(N3CCCCC3)C2)C[C@H]1OC(C)=O (stereo not given in full) is >2 h

Form field Time, entry OC1CCC2=C(C1)CC(N1CCCC1)C2 (stereo not given) : 0.25 h

compound CCCCN(Cc1ccccc1)C1CC2=C(CC(O)CC2)C1.Cl (stereo not given) , Time observed: 1 h

// field: Time; key: OC1CCC2=C(C1)CN(C1CCCCC1)C2 (stereo not given) ; value = <0.25 h

Per the records, this compound ( Cl.OC1CCC2=C(C1)CC(CCN1CCCCC1)C2 (stereo not given) ) has Time equal to 0.25 h

Time measured on CC(=O)O[C@@H]1CC2=C(CC(CN3CCCCC3)C2)C[C@H]1OC(C)=O.Cc1ccc(S(=O)(=O)O)cc1 (relative stereo) = <0.25 h

Documented Time of O[C@H]1CC2=C(CC(N3CCCCC3)C2)C[C@@H]1O (relative stereo) : 0.25 h

Reported Time ( Cl.OC1CCC2=C(C1)CC(CN1CCCCC1)C2 (stereo not given) ) = 0.25 h

Summary for this compound, Oc1ccc2c(c1)CC(N1CCCCC1)C2 (stereo not given) : Time is <0.25 h

Sample CC(=O)O[C@H]1CC2=C(CC(N(C)C)C2)C[C@H]1OC(C)=O.Cc1ccc(S(=O)(=O)O)cc1 (stereo not given in full) ; Time observed: 1 h

---

So I've got a bunch of compounds here, and I need their Time values.
test system: Felis catus; assay: Inhibition of electrical stimulation-induced monosynaptic spinal reflex response in unanesthetized decerebrated cat spinal cord segment assessed as duration at 5 mg/kg, iv; assay type: functional
The response must be a number in min with no trailing unit.

# Time (compound: Br.OC1CC2=C(CC=CC2)C1CCCN1CCCCC1 (stereo not given) ) is 60

Lab book: Time of O[C@@H]1CC2=C(CC(CN3CCCCC3)C2)C[C@H]1O (relative stereo) noted as 0

---

test system: Felis catus; experiment: Inhibition of electrical stimulation-induced monosynaptic spinal reflex response in unanesthetized decerebrated cat spinal cord segment assessed as duration at 5 mg/kg, iv; format: functional
experimental.endpoint: Time

So, O[C@@H]1CC2=C(CC(N3CCCCC3)C2)C[C@H]1Oc1ccccc1 (relative stereo) ? Its Time was <15 min

The value of Time measured for the compound O[C@@H]1CC2=C(CC(N3CCCCC3)C2)C[C@@H]1O (stereo partly drawn) turned out to be <15 min

The compound listed as CN1CC2=C(C[C@H](O)[C@@H](O)C2)C1 (relative stereo) has a reported Time of <15 min
